- System: VERO E6 cells
assay_metric: CC50 (µM)

1. O=c1nc(NO)ccn1[C@@H]1O[C@H](CO)[C@@H](O)[C@H]1O | 43.3

---

- measurement_notes: in vitro
- applied_conditions: African green monkey
assay_metric: CC50 (µM)

1. CC(C)(C)[C@H](NC(=O)C(F)(F)F)C(=O)N1C[C@H]2[C@@H]([C@H]1C(=O)N[C@H](C#N)C[C@@H]1CCNC1=O)C2(C)C [Nirmatrelvir] | 69.6

---

# IC50 per entry
- System: SARS-CoV-2 omicron BA.1
- measurement_notes: microbe, parasite or virus in culture
- Type: cell-based
- applied_conditions: Severe acute respiratory syndrome coronavirus 2, Vero C1008; VERO E6; plus 0.5 µM P-gp inhibitor CP-100356; MOI 0.005; 72 h; read-out: IC50 BA.1 Mean ± SD
assay_metric: IC50 (nM)

1. CCC(CC)COC(=O)[C@H](C)N[P@](=O)(OC[C@H]1O[C@@](C#N)(c2ccc3c(N)ncnn23)[C@H](O)[C@@H]1O)Oc1ccccc1 | 50
2. CC(C)(C)[C@H](NC(=O)C(F)(F)F)C(=O)N1C[C@H]2[C@@H]([C@H]1C(=O)N[C@H](C#N)C[C@@H]1CCNC1=O)C2(C)C | 40

---

- Tested on: SARS-CoV-2 delta
- measurement_notes: microbe, parasite or virus in culture
- Assay type: cell-based
- applied_conditions: Severe acute respiratory syndrome coronavirus 2, Vero C1008; VERO E6; plus 0.5 µM P-gp inhibitor CP-100356; MOI 0.005; 72 h; read-out: IC50 Delta Mean ± SD
pIC50: −log10 of the molar value.
Measured pIC50, listed per entry.
assay_metric: pIC50

1) CCC(CC)COC(=O)[C@H](C)N[P@](=O)(OC[C@H]1O[C@@](C#N)(c2ccc3c(N)ncnn23)[C@H](O)[C@@H]1O)Oc1ccccc1 [Remdesivir] | 6.96
2) CC(C)(C)[C@H](NC(=O)C(F)(F)F)C(=O)N1C[C@H]2[C@@H]([C@H]1C(=O)N[C@H](C#N)C[C@@H]1CCNC1=O)C2(C)C [Nirmatrelvir] | 7.22
